Attribution: PubChem BioAssay AID1159580

Assay: chemical genetic growth profiling, strain panel (AID 1159580);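 also: tested at 20 µM; growth read once vehicle control cultures reached saturation at 30 °C; lower values mean less growth of the strain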
Conditions: S. cerevisiae deletion strains, growth OD, locus YLR262C, strain YPT6 (second series)
The campaign covered roughly 5,500 compounds. About 2,000 (36%) were called active. About 18% were inconclusive and are not listed. Rule as the data show it: active = normalized growth mostly below about 0.91 (no sharp cut-off); inconclusive = no clear call, values can overlap the other calls; inactive = mostly above about 0.92. The list shows a part of the results.
Classes used: TRUE for active, FALSE for inactive

[
  {
    "MOLECULE": "CCCC(CCC)C(=O)O",
    "DISCRETE LABEL": "FALSE"
  },
  {
    "MOLECULE": "c1ccc2c(c1)CN1CCCC1=N2",
    "DISCRETE LABEL": "FALSE"
  },
  {
    "MOLECULE": "C[C@@H](N)[C@@H](O)c1ccccc1",
    "DISCRETE LABEL": "TRUE"
  },
  {
    "MOLECULE": "C=C1C2CC[C@@]3(C)[C@H](c4ccoc4)OC(=O)C[C@]13O[C@H]1CC(=O)C(C)(C)C(CC(=O)OC)[C@@]21C (stereo partly specified)",
    "DISCRETE LABEL": "FALSE"
  },
  {
    "MOLECULE": "CCCCCC1C(=O)CCC1CC(=O)O (stereo unspecified)",
    "DISCRETE LABEL": "FALSE"
  },
  {
    "MOLECULE": "N[C@H](Cc1ccccc1)C(=O)O",
    "DISCRETE LABEL": "FALSE"
  },
  {
    "MOLECULE": "O=c1cc(-c2ccccc2)oc2cc(O)c(O)c(O)c12",
    "DISCRETE LABEL": "TRUE"
  },
  {
    "MOLECULE": "C=C1C2=CC(=O)O[C@@H](c3ccoc3)[C@]2(C)CCC1[C@@]1(C)C=CC(=O)C(C)(C)[C@@H]1CC(=O)OC (stereo partly specified)",
    "DISCRETE LABEL": "FALSE"
  },
  {
    "MOLECULE": "N[C@H](Cc1cc(I)c(Oc2ccc(O)c(I)c2)c(I)c1)C(=O)O",
    "DISCRETE LABEL": "FALSE"
  },
  {
    "MOLECULE": "NS(=O)(=O)c1cc2c(cc1Cl)NC(C1CC3C=CC1C3)NS2(=O)=O (stereo unspecified)",
    "DISCRETE LABEL": "FALSE"
  },
  {
    "MOLECULE": "NC(N)=O",
    "DISCRETE LABEL": "FALSE"
  },
  {
    "MOLECULE": "C=C[C@H]1CN2CC[C@H]1C[C@@H]2[C@H](O)c1ccnc2ccccc12",
    "DISCRETE LABEL": "FALSE"
  },
  {
    "MOLECULE": "C=C1C(C2(C)C=CC(=O)C(C)(C)C2CC(=O)OC)CC[C@@]2(C)[C@H](c3ccoc3)OC(=O)C3OC132 (stereo partly specified)",
    "DISCRETE LABEL": "FALSE"
  },
  {
    "MOLECULE": "CCCCCC1C(=O)CCC1CC(=O)OC (stereo unspecified)",
    "DISCRETE LABEL": "FALSE"
  },
  {
    "MOLECULE": "CN(C)CCOC(=O)COc1ccc(Cl)cc1",
    "DISCRETE LABEL": "FALSE"
  },
  {
    "MOLECULE": "COc1ccc(C(=O)N2CCCC2=O)cc1",
    "DISCRETE LABEL": "FALSE"
  }
]
